Target: Acetylcholinesterase (Rattus norvegicus, UniProt P37136)
Sequence (P37136 whole entry): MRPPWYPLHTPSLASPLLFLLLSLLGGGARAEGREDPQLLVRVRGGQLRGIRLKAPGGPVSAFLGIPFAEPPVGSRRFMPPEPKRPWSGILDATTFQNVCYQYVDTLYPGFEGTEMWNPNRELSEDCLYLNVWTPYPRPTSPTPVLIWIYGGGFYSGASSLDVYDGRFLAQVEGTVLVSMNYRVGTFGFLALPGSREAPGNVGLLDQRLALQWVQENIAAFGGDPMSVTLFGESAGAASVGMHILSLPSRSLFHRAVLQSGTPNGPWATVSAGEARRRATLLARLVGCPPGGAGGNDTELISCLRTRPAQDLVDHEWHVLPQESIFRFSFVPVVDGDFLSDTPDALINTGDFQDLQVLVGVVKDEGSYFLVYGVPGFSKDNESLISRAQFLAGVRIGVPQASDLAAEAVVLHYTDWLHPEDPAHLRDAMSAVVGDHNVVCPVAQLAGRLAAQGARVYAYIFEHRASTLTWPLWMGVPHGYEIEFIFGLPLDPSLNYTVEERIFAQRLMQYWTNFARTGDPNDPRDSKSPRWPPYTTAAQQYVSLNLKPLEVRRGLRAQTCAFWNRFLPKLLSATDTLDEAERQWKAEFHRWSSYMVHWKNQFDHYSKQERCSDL
Experiment: Inhibition of AChE in rat cerebral cortex homogenates using acetylthiocholine iodide as substrate after 8 mins by Ellman's spectrophotometric method
Assay type: tissue-based
Conditions: read-out: IC50
parameter.measured: IC50

Known results for molecules:
CCN(C(=O)C1CCN(C(=O)Nc2cccc(Cn3nc(Nc4ccccc4C)ccc3=O)c2)CC1)C(C)C
28 nM
CCN(CC)C(=O)C1CCN(C(=O)Nc2cccc(Cn3nc(Nc4cccc(C(F)(F)F)c4)ccc3=O)c2)CC1
135 nM
CCc1ccccc1Nc1ccc(=O)n(Cc2cccc(NC(=O)N3CCC(C(=O)N(CC)CC)CC3)c2)n1
188 nM
c1ccc(CN2CCC(CCNc3cc4c(nn3)-c3ccccc3CC4)CC2)cc1
39 nM
CCN(CC)C(=O)C1CCN(C(=O)Nc2cccc(Cn3nc(Nc4cccc(C)c4)ccc3=O)c2)CC1
1420 nM
CCN(CC)C(=O)C1CCN(C(=O)Nc2cccc(Cn3nc(Nc4ccccc4C(F)(F)F)ccc3=O)c2)CC1
119 nM

For every record below, what is its IC50?
1. CCN(C)C(=O)C1CCN(C(=O)Nc2cccc(Cn3nc(Nc4ccccc4C)ccc3=O)c2)CC1
2. CCN(CC)C(=O)C1CCN(C(=O)Nc2cccc(Cn3nc(-c4ccccc4C)ccc3=O)c2)CC1
3. Cc1ccccc1Nc1ccc(=O)n(Cc2cccc(NC(=O)N3CCC(C(=O)N(C)C)CC3)c2)n1
4. CCN(CC)C(=O)C1CCN(C(=O)Nc2cccc(Cn3nc(-c4cccc(Cl)c4)ccc3=O)c2)CC1
5. CCN(CC)C(=O)C1CCN(C(=O)Nc2cccc(Cn3nc(-c4cccc(Br)c4)ccc3=O)c2)CC1
6. CCN(CC)C(=O)C1CCN(C(=O)Nc2cccc(Cn3nc(Nc4ccc(C(F)(F)F)cc4)ccc3=O)c2)CC1
7. Cc1ccccc1Nc1ccc(=O)n(Cc2cccc(NC(=O)N3CCC(C(=O)N(C(C)C)C(C)C)CC3)c2)n1

Reply:
473 nM
2610 nM
7600 nM
648 nM
623 nM
4840 nM
116 nM

###

target: Acetylcholinesterase (Rattus norvegicus); experiment: Inhibition of AChE in rat cerebral cortex homogenates using acetylthiocholine iodide as substrate after 8 mins by Ellman's spectrophotometric method; assay type: tissue-based; conditions: read-out: IC50
parameter.measured: log10 IC50 (log10 of the value in nM)
Reminder: these figures are log10 of reported IC50, in nM before transformation.

Worked cases, log10 IC50 given:
CCN(CC)C(=O)C1CCN(C(=O)Nc2cccc(Cn3nc(Nc4cccc5ccccc45)ccc3=O)c2)CC1
2.10
CCN(CC)C(=O)C1CCN(C(=O)Nc2cccc(Cn3nc(-c4ccccc4)ccc3=O)c2)CC1
3.22
CCN(CC)C(=O)C1CCN(C(=O)Nc2cccc(Cn3nc(Nc4ccccc4C)ccc3=O)c2)CC1
1.69
CCN(CC)C(=O)C1CCN(C(=O)Nc2cccc(Cn3ncccc3=O)c2)CC1
3.69

Next up:
Query: Form field: reported log10 IC50 of CCN(CC)C(=O)C1CCN(C(=O)Nc2cccc(Cn3nc(Nc4c(C)cccc4C)ccc3=O)c2)CC1
Reply: 2.78

FYI, the data here is from ChEMBL document CHEMBL2375253.
